Recorded values, source patent US8729078B2.

molecular target: Btk (Homo sapiens (Human), UniProt Q06187)
Sequence (Q06187 whole entry): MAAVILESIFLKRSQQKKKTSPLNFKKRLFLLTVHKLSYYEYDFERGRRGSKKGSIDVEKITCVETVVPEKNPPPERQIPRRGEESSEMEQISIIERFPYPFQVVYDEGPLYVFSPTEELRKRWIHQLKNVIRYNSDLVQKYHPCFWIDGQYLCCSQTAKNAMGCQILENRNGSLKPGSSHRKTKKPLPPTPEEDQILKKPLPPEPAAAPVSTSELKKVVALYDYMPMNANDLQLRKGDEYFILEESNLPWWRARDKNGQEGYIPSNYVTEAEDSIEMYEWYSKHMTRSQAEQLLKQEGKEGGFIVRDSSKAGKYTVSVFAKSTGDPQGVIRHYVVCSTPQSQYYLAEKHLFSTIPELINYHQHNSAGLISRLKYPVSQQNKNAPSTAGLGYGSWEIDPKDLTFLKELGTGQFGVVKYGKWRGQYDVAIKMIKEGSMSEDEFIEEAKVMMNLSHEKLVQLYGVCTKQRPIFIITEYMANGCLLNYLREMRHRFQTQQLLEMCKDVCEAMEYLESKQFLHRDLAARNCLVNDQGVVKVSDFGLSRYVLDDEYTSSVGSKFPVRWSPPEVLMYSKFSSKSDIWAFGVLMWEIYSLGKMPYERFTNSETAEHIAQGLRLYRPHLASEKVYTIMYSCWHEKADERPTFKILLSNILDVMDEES
Note to self: class = bucket of IC50, per low (below 0.4 nM), middle (0.4 nM to below 100 nM), high (100 nM or more)

- test-smiles: "CC(C)(C)c1cc(F)c2c(=O)n(-c3cccc(-n4cc(C(N)=O)c(Nc5ccc(C(F)(F)F)cn5)n4)c3CO)ncc2c1"
  cat: "middle"
- test-smiles: "CC(C)(C)c1cc(F)c2c(=O)n(-c3cccc(-n4cc(C(N)=O)c(Nc5ccc(S(C)(=O)=O)cn5)n4)c3CO)ncc2c1"
  cat: "low"
- test-smiles: "CC(C)(C)c1cc(F)c2c(=O)n(-c3cccc(-c4nc(C(N)=O)cs4)c3CO)ncc2c1"
  cat: "high"
- test-smiles: "CN1CCN(c2ccc3c(C(N)=O)cn(-c4cccc(-n5ncc6cc(C(C)(C)C)cc(F)c6c5=O)c4CO)c3n2)CC1"
  cat: "middle"
- test-smiles: "CC(C)(C)c1cc(F)c2c(=O)n(-c3cccc(-n4cc(C(N)=O)c(Nc5ccccn5)n4)c3CO)ncc2c1"
  cat: "low"
- test-smiles: "Cn1cc(-c2cccc(-n3ncc4cc(C(C)(C)C)ccc4c3=O)c2CO)cc1C(N)=O"
  cat: "middle"
- test-smiles: "Cc1nc(-c2cccc(-n3ncc4cc(C(C)(C)C)ccc4c3=O)c2CO)oc1C(N)=O"
  cat: "high"
- test-smiles: "CC(C)(C)c1cc(F)c2c(=O)n(-c3cccc(-n4cc(C(N)=O)cn4)c3)ncc2c1"
  cat: "high"
- test-smiles: "Cc1cc(Nc2nn(-c3cccc(-n4ncc5cc(C(C)(C)C)cc(F)c5c4=O)c3CO)cc2C(N)=O)nn1C"
  cat: "low"
